Entries annotated with measured Liver Microsome Stability (Multiple Species): Rat - % Remaining after 30 min w/NADPH
experiment: Liver Microsome Stability Assay (rat); details: rat liver microsomes, with NADPH, 1.0 uM compound
MEASURE_NAME: Liver Microsome Stability (Multiple Species): Rat - % Remaining after 30 min w/NADPH (%)

compound=O=C(Nc1nc([C@H]2CCCN(c3ccccn3)C2)cs1)c1cccn1Cc1ccncc1 endpoint_result=1.2
compound=Cc1cccc(Cn2cccc2C(=O)Nc2nc([C@H]3CCCN3c3ccccc3)cs2)c1 endpoint_result=36.8
compound=Cc1ccc(N2CCC[C@@H]2c2csc(NC(=O)c3cccn3Cc3ccncc3)n2)cc1 endpoint_result=11
compound=COCCCCn1cccc1C(=O)Nc1nc([C@H]2CCCN2c2ccccc2)cs1 endpoint_result=8.52
compound=CNc1ccc(N2CCC[C@@H]2c2csc(NC(=O)c3cccn3Cc3ccncc3)n2)cc1 endpoint_result=17.7
compound=O=C(Nc1nc([C@H]2CCCN2c2ccccc2)cs1)c1cccn1Cc1cccc(Cl)c1 endpoint_result=52.6
compound=CC(C)c1c(/C=C/c2csc(NC(=O)c3cccn3Cc3ccncc3)n2)ncn1C endpoint_result=2.02
compound="O=C(Nc1nc([C@H]2CCCN2c2ccccc2)cs1)c1cccn1CCC1CCOC1 (some centres unmarked)" endpoint_result=4.35

###

experiment: Liver Microsome Stability Assay (monkey); conditions: monkey liver microsomes, with NADPH, 1.0 uM compound
Each entry below carries its recorded Liver Microsome Stability (Multiple Species): Monkey - % Remaining after 30 min w/NADPH.
MEASURE_NAME: Liver Microsome Stability (Multiple Species): Monkey - % Remaining after 30 min w/NADPH (%)

compound=O=C(Nc1nc([C@H]2CCCN2)cs1)c1cccn1Cc1ccncc1 result_units=% endpoint_result=18.1
compound=COc1ccc(O[C@@H]2CCC[C@H](c3csc(NC(=O)c4cccn4Cc4ccncc4)n3)C2)nc1 result_units=% endpoint_result=0.19
compound=CN(C)C(=O)c1ccc(N2CCC[C@@H]2c2csc(NC(=O)c3cccn3Cc3ccncc3)n2)cc1 result_units=% endpoint_result=0.08
compound=O=C(Nc1nc(C#Cc2ccccn2)cs1)c1cccn1Cc1ccncc1 result_units=% endpoint_result=0.6
compound=O=C(Nc1nc([C@H]2CCCN2c2ccccc2)cs1)c1cccn1CC1CCOCC1 result_units=% endpoint_result=6.6
compound=CC(=O)N(C)C/C=C/c1csc(NC(=O)c2cccn2Cc2ccncc2)n1 result_units=% endpoint_result=0.11
compound=CC(=O)N1CCC(Oc2ccc(N3CCC[C@@H]3c3csc(NC(=O)c4cccn4Cc4ccnc(F)c4)n3)cc2)CC1 result_units=% endpoint_result=21.4
compound=CC(=O)N[C@@H](C)c1ccc(N2CCC[C@@H]2c2csc(NC(=O)c3cccn3Cc3ccnc(F)c3)n2)cc1 result_units=% endpoint_result=0.47
compound=CCOC(=O)Nc1ccc(N2CCC[C@@H]2c2csc(NC(=O)c3cccn3Cc3ccnc(F)c3)n2)cc1 result_units=% endpoint_result=18
compound="CC(c1ccncc1)n1cccc1C(=O)Nc1nc([C@H]2CCCN2c2ccccc2)cs1 (some centres unmarked)" result_units=% endpoint_result=0.67
compound="O=C(Nc1nc(C2Cc3cccnc3C2)cs1)c1cccn1Cc1ccncc1 (centres unmarked)" result_units=% endpoint_result=0.08
compound=O=C(Nc1nc([C@H]2CCCN2c2ccccc2)cs1)c1cccn1Cc1ccncc1Br result_units=% endpoint_result=0.58
compound=O=C(Nc1nc(/C=C/c2cn(C3CCCCC3)cn2)cs1)c1cccn1CC1CCOCC1 result_units=% endpoint_result=0.17
compound=CC(C)OC(=O)Nc1ccc(N2CCC[C@@H]2c2csc(NC(=O)c3cccn3Cc3ccnc(F)c3)n2)cc1 result_units=% endpoint_result=21.6
compound=CC(=O)N1CC=C(Oc2ccc(N3CCC[C@@H]3c3csc(NC(=O)c4cccn4Cc4ccnc(F)c4)n3)cc2)CC1 result_units=% endpoint_result=0.16
compound=N#CCC1(Cn2cccc2C(=O)Nc2nc([C@H]3CCCN3c3ccccc3)cs2)COC1 result_units=% endpoint_result=8.4
compound=O=C(Nc1nc(/C=C/c2cn3c(n2)CCC3)cs1)c1cccn1Cc1ccncc1 result_units=% endpoint_result=0.03
compound=O=C(Nc1nc(/C=C/c2ncn3c2CCCC3)cs1)c1cccn1Cc1ccnc(F)c1 result_units=% endpoint_result=0.11
compound=O=C(Nc1nc([C@H]2CCCN2c2ccc(O[C@H]3CCCNC3)cc2)cs1)c1cccn1Cc1ccnc(F)c1 result_units=% endpoint_result=3.2
compound="CC1CCCc2c(/C=C/c3csc(NC(=O)c4cccn4Cc4ccnc(F)c4)n3)ncn21 (centres unmarked)" result_units=% endpoint_result=0.25
compound=C[C@@H](N)c1ccc(N2CCC[C@@H]2c2csc(NC(=O)c3cccn3Cc3ccnc(F)c3)n2)cc1 result_units=% endpoint_result=37.8
compound=CC(C)c1nc(/C=C/c2csc(NC(=O)c3cccn3Cc3ccncc3)n2)co1 result_units=% endpoint_result=0.69
compound="O=C(Nc1nc([C@H]2CCCN2c2ccccc2)cs1)c1cccn1CC1CCC(F)(F)C1 (some centres unmarked)" result_units=% endpoint_result=3.11
compound=Cc1cccc(/C=C/c2csc(NC(=O)c3cccn3Cc3ccnc(F)c3)n2)n1 result_units=% endpoint_result=0.17
compound=Cc1cc(C(=O)Nc2nc(/C=C/c3cn(C(C)C)cn3)cs2)n(Cc2ccnc(F)c2)c1 result_units=% endpoint_result=2.99
compound="O=C(NC1=NC(/C=C/c2ccccc2)CS1)c1cccn1Cc1ccncc1 (centres unmarked)" result_units=% endpoint_result=0.06
compound=O=C(Nc1nc([C@H]2CCCN2c2ccccc2)cs1)c1cccn1CCCC1COC1 result_units=% endpoint_result=6.55
compound=N#Cc1cccc(Cn2cccc2C(=O)Nc2nc([C@H]3CCCN3c3ccccc3)cs2)c1 result_units=% endpoint_result=9.17
compound=O=C(Nc1nc([C@H]2CCCN2c2ccccc2)cs1)c1cccn1CCc1cccnc1 result_units=% endpoint_result=0.23
compound=O=C(Nc1nc([C@H]2CCCN2c2ccc(C(F)(F)F)cc2)cs1)c1cccn1Cc1ccncc1 result_units=% endpoint_result=3.97
compound=O=C(Nc1ccc(N2CCC[C@@H]2c2csc(NC(=O)c3cccn3Cc3ccnc(F)c3)n2)cc1)O[C@H]1CCOC1 result_units=% endpoint_result=15.4
compound=Cc1ccc(N2CCC[C@@H]2c2csc(NC(=O)c3cccn3Cc3ccncc3)n2)cc1 result_units=% endpoint_result=1.43

###

Test system: IL-2-FL/Gaussia Luciferase
Test: Dox Induced IL2-FL-Gluc Assay
Type: cell-based
Conditions: ratio of IL2FLGluc IC50 to PD1ssGluc IC50
Excerpt: Flp-In 293 T-REx™ cells were transfected with pcDNA™5/FRT/TO plasmid inserted with cDNA encoding Gaussia Luciferase fused to the 3′ end of cDNA encoding full length IL-2 (amino acids 1-153). Transfected cells were selected for resistance to the selectable markers Hygromycin and Blasticidin to create a stable cell line that contained the IL-2-FL/Gaussia Luciferase cDNA insert whose expression was regulated under the T-REx™ system. […]
MEASURE_NAME: 24 hr Dox Inducible IL2FLGluc 293FRT/TO: IL2/PD1

molecule="CC(=O)N1CC(Oc2ccc(N3CCC[C@@H]3c3csc(NC(=O)c4cccn4Cc4ccnc(F)c4)n3)cc2)C1 [Compound A81]" endpoint_result=3
molecule="CC(C(N)=O)n1cnc(/C=C/c2csc(NC(=O)c3cccn3Cc3ccnc(F)c3)n2)c1 (stereo not shown) [Compound B113]" endpoint_result=<=>1.0
molecule="COCCn1cnc(/C=C/c2csc(NC(=O)c3cccn3Cc3ccncc3)n2)c1 [Compound B56]" endpoint_result=>48
molecule="O=C(Nc1nc(/C=C/c2cccc(=O)[nH]2)cs1)c1cccn1Cc1ccnc(F)c1 [Compound B61]" endpoint_result=<=>1.0

###

assay: Liver Microsome Stability Assay (mouse); conditions: mouse liver microsomes, with NADPH, 1.0 uM compound
MEASURE_NAME: Liver Microsome Stability (Multiple Species): Mouse - % Remaining after 30 min w/NADPH (%)

structure_as_smiles=Cc1ccc(N2CCC[C@@H]2c2csc(NC(=O)c3cccn3CC3CCOCC3)n2)cc1 endpoint_result=62.6
structure_as_smiles=CN(C)C(=O)CCCCn1cccc1C(=O)Nc1nc([C@H]2CCCN2c2ccccc2)cs1 endpoint_result=0.25
structure_as_smiles=O=C(Nc1nc([C@H]2CCCN2c2ccc(OC3CN(C(=O)C4CC4)C3)cc2)cs1)c1cccn1Cc1ccnc(F)c1 endpoint_result=21
structure_as_smiles=NC(=O)N1CC(Oc2ccc(N3CCC[C@@H]3c3csc(NC(=O)c4cccn4Cc4ccnc(F)c4)n3)cc2)C1 endpoint_result=53

###

assay: Liver Microsome Stability Assay (human); conditions: human liver microsomes, with NADPH, 1.0 uM compound
MEASURE_NAME: Liver Microsome Stability (Multiple Species): Human - % Remaining after 30 min w/NADPH (%)

compound="CC(=O)N1CCC(Oc2ccc(N3CCC[C@@H]3c3csc(NC(=O)c4cccn4Cc4ccnc(F)c4)n3)cc2)C1 (some centres unmarked)" endpoint_result=5.48
compound=CN(C)C(=O)CCCCn1cccc1C(=O)Nc1nc([C@H]2CCCN2c2ccccc2)cs1 endpoint_result=0.05
compound=O=C(Nc1nc(C#Cc2ccccn2)cs1)c1cccn1Cc1ccncc1 endpoint_result=0.35
compound=CC(=O)N1CC(CCc2ccc(N3CCC[C@@H]3c3csc(NC(=O)c4cccn4Cc4ccnc(F)c4)n3)cc2)C1 endpoint_result=1.34
compound=N#CCCCn1cccc1C(=O)Nc1nc([C@H]2CCCN2c2ccccc2)cs1 endpoint_result=33.9
compound=C[C@H](N)c1ccc(N2CCC[C@@H]2c2csc(NC(=O)c3cccn3Cc3ccncc3)n2)cc1 endpoint_result=51.8
compound=O=C(Nc1nc(-c2cccc(-c3ccccn3)c2)cs1)c1cccn1Cc1ccnc(F)c1 endpoint_result=1.91
compound=CCc1ccc(N2CCC[C@@H]2c2csc(NC(=O)c3cccn3CC3CCOCC3)n2)cn1 endpoint_result=0.07
